TEST_SUMMARY: PSAC antagonists in infected red cells, primary screen, cell-based, P. falciparum Indochina, OD700, 1 h (AID 1154)
MEASUREMENT_CONDITIONS: P. falciparum Indochina infected RBC osmotic lysis, higher = more signal, called active from +8 up or from −8 down
The source made the active and inactive calls.
z-score overview

COMPOUND	z-score
CC1CC/C=C\[C@H]2OC34C=CCN(C(C)C)C(=O)[C@H]3N(CCCCCCO)C(=O)[C@@H]4C2C(=O)O1 (stereo partly drawn)	0.719 (inactive)
C[N+](C)(C)CCCCCCNC(=O)[C@H]1C[C@H]2C(=O)NCC(=O)N2[C@H]1c1ccc(O)cc1	1.76 (inactive)
NC(N)=NCCCn1cc(CNC(=O)[C@@H](N)Cc2ccccc2)nn1	-0.174 (inactive)
CN1C(=O)C2C=CC(C(O)c3ccc(F)cc3)N(Nc3ccccc3)C2C1=O (stereo not drawn)	1.24 (inactive)
COc1ccc(CN(C2=CC[C@@]3(C(N)=O)C(=O)C(Cl)=C(Cl)C(=O)[C@@]3(C#N)C2)S(=O)(=O)c2ccc(Br)cc2)cc1	5.11 (inactive)
COc1cc(OC)c(C(O)C2C=CC3C(=O)N(c4ccccc4)C(=O)C3N2Nc2ccccc2)cc1Br (stereo not drawn)	20.2 (active)
CCCCCCc1nc(C2CC2)cc2c1[Si](C(C)C)(C(C)C)O[C@H]2c1ccccc1	0.0479 (inactive)
[N-]=[N+]=Nc1ccccc1[C@@H]1OC(c2ccc(OCCCO)cc2)=N[C@]1(Cc1ccccc1)C(=O)NCC(O)CO (stereo partly drawn)	31 (active)
C=CCC(OC(C)=O)[C@@H]1[C@@H](N(Cc2cccc3ccccc23)C(=O)c2cccc3ccccc23)c2cc(OCCCO)ccc2N1C(=O)c1ccc(-c2ccccc2)cc1 (stereo partly drawn)	-0.17 (inactive)
CC(C)N1CC=CC23O[C@@H]4C=CCOC(=O)[C@@H]4[C@H]2C(=O)N(CCCO)[C@@H]3C1=O (stereo partly drawn)	1.08 (inactive)
C=CCC(OC(C)=O)[C@@H]1[C@@H](N(Cc2cccc3ccccc23)C(=O)Cc2ccc(F)cc2)c2cc(OCCCO)ccc2N1C(=O)c1ccc2ccccc2n1 (stereo partly drawn)	1.05 (inactive)
COCCOC(=O)N1C(=O)[C@@]2(c3cc(C#CCC(C(=O)OC)C(=O)OC)ccc31)[C@H](C(=O)N1CCc3cc(OC)c(OC)cc3C1)[C@H]1C(=O)O[C@H](c3ccccc3)[C@H](c3ccccc3)N1[C@@H]2c1ccc(OCCO)cc1	9.36 (active)
COC(=O)[C@@]1(Cc2ccccc2N=[N+]=[N-])N=C(c2ccc(OCCCO)cc2)O[C@H]1c1ccccc1N=[N+]=[N-]	24.9 (active)
